The measurements presented in this section are drawn from ChEMBL document CHEMBL4513216.

Tested on: Plasmodium berghei
Test: Screen against P. berghei liver stage (PbLuc), transformed with Luciferase, at 10uM
Format: functional, HepG2
Conditions: tested at 10 uM
The campaign covered roughly 69,000 compounds. About 8,600 (12%) showed an effect of 50% or more. For the sample, strong results were picked, then their nearest neighbours and some compounds at random.
TEST READOUT: INHIBITION (%)

>>> test_result("COCC(C)N(Cc1ccccc1OC)C(=O)c1cc(C)[nH]c(=O)c1 (stereo unspecified)")
29.4
>>> test_result("CN(C)C(C(=O)N1CCC(c2ncc[nH]2)CC1)c1ccc2c(c1)OCO2 (stereo unspecified)")
14.3
>>> test_result("CCc1cc(N[C@H](C(N)=O)C(C)C)n2nc(C)c(C)c2n1")
16.3
>>> test_result("Cc1ccc(CC(=O)N(CC2CN(C)CCO2)c2nccs2)cn1 (stereo unspecified)")
11.9
>>> test_result("CCc1cc(N[C@@H](CO)C(N)=O)n2nc(C)c(C)c2n1")
54.4
>>> test_result("CC(C)COc1ccccc1CN(C)C(=O)c1cc(=O)[nH]c(=O)[nH]1")
10.6

----------
System: Plasmodium berghei
Test: Screen against P. berghei liver stage (PbLuc), transformed with Luciferase, at 10uM
Format: functional, HepG2
Details: tested at 10 uM
In all, about 69,000 compounds went through this assay and about 8,600 (12%) showed an effect of 50% or more. Many of the other results were omitted from the sample, so strong results are more common in it than they were.
TEST READOUT: INHIBITION (%)

>>> test_result("COCc1noc(-c2cc(Cl)c3c(c2)OCO3)n1")
-26.1
>>> test_result("CC(C)CN1CCN(C(=O)c2[nH]nnc2Nc2ccccc2F)CC1")
64
>>> test_result("CC(=O)N1CCN(C(=O)c2[nH]nnc2Nc2ccccc2F)CC1")
-1.45
>>> test_result("COCCn1cnnc1C1CCCN(c2cnccn2)C1 (stereo unspecified)")
30.4
>>> test_result("COC(=O)c1cccc(C(=O)N2CCN(C(=O)N(C)C)CC2(C)C)c1")
68.6
>>> test_result("CC(C)N1CCN(C(=O)c2[nH]nnc2Nc2ccccc2F)CC1")
4.35
>>> test_result("CCN1CCCC1CNCc1cc2ccccc2[nH]c1=O (stereo unspecified)")
-61.5
>>> test_result("CN(C)C(=O)N1CCN(C(=O)c2ccc(Cl)c(Cl)c2)C(C)(C)C1")
14.1
>>> test_result("Cc1cccc(C(Nc2nccc(C)n2)C2CC2)n1 (stereo unspecified)")
6.66
>>> test_result("CN(Cc1n[nH]c2c1CCC2)C(=O)c1cccc(CCC(C)(C)O)c1")
68.5
>>> test_result("CCOc1ccc2[nH]c(=O)c(CN(C)CCc3cn[nH]c3)cc2c1")
54.4

----------
Tested on: Plasmodium berghei
Experiment: Screen against P. berghei liver stage (PbLuc), transformed with Luciferase, at 10uM
Type: functional, HepG2
Details: tested at 10 uM
Out of some 69,000 compounds screened, about 8,600 (12%) showed an effect of 50% or more. Many of the other results were omitted from the sample, so strong results are more common in it than they were.
Field 'label' (enum: 1 (yes) / 0 (no)). Set to 1 (yes) when INHIBITION is strictly under 10%; else 0 (no).

>>> group("CN(Cc1ccc(Cl)s1)C1CCCN(c2cccnn2)C1 (stereo not given)")
"0 (no)"
>>> group("COc1cc(C)sc1C(=O)NCCC(=O)N(C)c1ccccc1")
"0 (no)"
>>> group("Cc1nnc(CN2CCCC(c3noc(C4CC4)n3)C2)o1 (stereo not given)")
"1 (yes)"
>>> group("c1ccc(-c2nnc(CNC3CCCN(c4cccnn4)C3)o2)cc1 (stereo not given)")
"1 (yes)"
>>> group("COc1cc(C)sc1C(=O)NCCNc1ccccc1")
"0 (no)"
>>> group("COc1c(C2CCCN2C(=O)c2c[nH]c3ncccc23)c(C)nn1C (stereo not given)")
"0 (no)"
>>> group("COC(=O)CCNC(=O)c1cccc(C(=O)N(C)c2ccccc2)c1")
"0 (no)"
>>> group("c1ccc(-c2cnc(CNC3CCCN(c4cccnn4)C3)o2)cc1 (stereo not given)")
"0 (no)"
>>> group("CC(C)c1cc(CN(C)C(=O)CN2CCC(C(N)=O)CC2)no1")
"0 (no)"
>>> group("COc1cc(C)sc1C(=O)NCCC(=O)N(C)Cc1ccccc1")
"0 (no)"
>>> group("CN(Cc1ccccc1)C(=O)CCNS(=O)(=O)c1cccnc1")
"1 (yes)"
>>> group("Cc1nn(C)c(C)c1C1CCCN1C(=O)c1cnc2onc(C)c2c1 (stereo not given)")
"1 (yes)"
>>> group("Cc1nc(C)n(CC2CCCCN2CCc2ccncc2)n1 (stereo not given)")
"1 (yes)"
>>> group("CN(C)c1no[n+]([O-])c1-c1ccccc1")
"1 (yes)"
>>> group("Cc1cnc(CN(C)C2CCCN(c3cccnn3)C2)cn1 (stereo not given)")
"1 (yes)"
>>> group("COc1ccc(C2CCCN2C(=O)NCCCn2ccnc2)cc1 (stereo not given)")
"0 (no)"
>>> group("CNC(=O)CCS(=O)(=O)Cc1cc(Cl)c2c(c1)OCCCO2")
"1 (yes)"
>>> group("COc1no[n+]([O-])c1-c1ccccc1")
"0 (no)"
>>> group("O=C(CN1CC(c2nc(-c3cccs3)no2)C1)NCC1CCCO1 (stereo not given)")
"0 (no)"
>>> group("CN(Cc1ncc(-c2ccccc2)o1)C1CCCN(c2cccnn2)C1 (stereo not given)")
"0 (no)"
>>> group("CCS(=O)(=O)N1CC(=O)N(CCOc2ccccc2)CC(O)C1 (stereo not given)")
"1 (yes)"
>>> group("c1cnnc(N2CCCC(NCc3ccncc3)C2)c1 (stereo not given)")
"0 (no)"
>>> group("c1ccc(-c2noc(CNC3CCCN(c4cccnn4)C3)n2)nc1 (stereo not given)")
"0 (no)"
>>> group("CC1(C)CN(CC(=O)NCc2ccccc2F)C[C@]1(C)O")
"1 (yes)"
>>> group("c1cnnc(N2CCCC(NCc3nc(C4CC4)no3)C2)c1 (stereo not given)")
"0 (no)"
